System: MDA-N
ASSAY DETAILS: NCI tumour cell line growth inhibition, 48 h
Active and inactive are the calls of the source. No stated cut-off is given here; in the data, active = GI50 up to about 1.1 µM and inactive = higher.

| COMPOUND | GI50 |
| --- | --- |
| CC(=O)O[C@H]1CC[C@@]2(C)[C@@H](CC[C@@H]3[C@@H]2CC(=O)[C@@]2(C)[C@H]3C[C@@H]3CC(C)=CC(=O)[C@@H]32)C1 | 43.1 µM (inactive) |
| c1cncc(C(Nc2cccc3cccnc23)Nc2cccc3cccnc23)c1 | > 100 µM (inactive) |
| CCOC(CBr)OC1C(=O)OCC1(C)C (centres undefined) | > 100 µM (inactive) |
| CC(=O)NC1C(OCc2ccccc2)OC(CO)C(O)C1OCC(=O)N[C@@H](C)C(=O)N[C@H](CCC(=O)NCCCCNc1c2ccccc2nc2cccc([N+](=O)[O-])c12)C(N)=O (some centres undefined) | 1.64 µM (inactive) |
